Entries and their measured folding stability dG follow.
B1: r4_43_TrROS_Hall (parent)
chain: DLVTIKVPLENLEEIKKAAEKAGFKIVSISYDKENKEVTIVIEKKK

Variants of: B1
assay: folding stability dG (cDNA display proteolysis); higher = more stable
stated conditions: PBS, room temperature
Report as a plain number; the unit kcal/mol is understood.

variant designation	units text	folding stability dG
K44G	kcal/mol	3.73

Consider "S30D" . Its measured folding stability dG is 3.5

Form field folding stability dG, entry "V27M" : 3.99
